# experimental-target: Human neutrophil elastase (Homo sapiens (Human))
# assay-comment: Human Neutrophil Elastase Assay
# Format: biochemical
# conditions: human neutrophil elastase, substrate MeOSuc-Ala-Ala-Pro-Val-AMC 250 μM, pH 7.5; read-out: IC50
readout: IC50 (nM)

compound="COc1cc(C#N)ccc1C1C2=C(CCC2=O)N(c2cccc(C(F)(F)F)c2)C(=O)N1S(C)(=O)=O (stereo not shown) [Example 38.2]" unit_descriptor=nM test_value=34.1

(1) CN1C(=O)N(c2cccc(C(F)(F)F)c2)C2=C(C(=O)CC2)C1c1ccc(C#N)cc1Cl (stereo not shown) [Example 26.4]
(2) CNC(=O)N1C(=O)N(c2cccc(C(F)(F)F)c2)C2=C(C(=O)CC2)[C@@H]1c1ccc(C#N)cc1F [Example 49B]
(3) CNC(=O)N1C(=O)N(c2cccc(C(F)F)c2)C2=C(C(=O)CC2)C1c1ccc(C#N)cc1 (stereo not shown) [Example 52.1]
(4) CN1C(=O)N(c2cccc(C(F)(F)F)c2)C2=C(C(=O)CC2)C1c1ccc(C#N)cc1Br (stereo not shown) [Example 27.2]
(5) CSc1cc(C#N)ccc1C1NC(=O)N(c2cccc(C(F)(F)F)c2)C2=C1C(=O)CC2 (stereo not shown) [Example 16]
Ascending sort, IC50. Order the labels as requested and give them as your answer.
3, 4, 5, 1, 2
(3: 1.1 nM, 4: 7.1 nM, 5: 14.9 nM, 1: 26.2 nM, 2: 173 nM)

====

# assay-comment: Drug transport across human Caco-2 cells
# Format: in vitro ADME
# conditions: human, Caco-2, pH 7.2, PEBA/PEAB, Caco-2
readout: efflux ratio at 10 μM

(I) CNC(=O)N1C(=O)N(c2cccc(C(F)F)c2)C2=C(C(=O)CC2)C1c1ccc(C#N)cc1 (stereo not shown)
(II) COC(=O)N1C(=O)N(c2cccc(C(F)(F)F)c2)C2=C(C(=O)CC2)[C@H]1c1ccc(C#N)cc1S(C)(=O)=O
Choose between I and II : whose measured efflux ratio at 10 μM value is numerically larger? Kindly state the label of the option you pick.
II
(II: 7.8, I: 1)

(P) CN1C(=O)N(c2cccc(C(F)(F)F)c2)C2=C(C(=O)CC2)C1c1ccc(C#N)cc1[S+](C)[O-] (single isomer, unassigned) [Example 30B]
(Q) CCNC(=O)N1C(=O)N(c2cccc(C(F)F)c2)C2=C(C(=O)CC2)C1c1ccc(C#N)cc1 (stereo not shown)
When their efflux ratio at 10 μM values are compared, which is larger, P or Q ? Respond with the label that goes with your answer.
P

====

# experimental-target: Human neutrophil elastase (Homo sapiens (Human), UniProt P08246)
# Sequence (P08246 30-247): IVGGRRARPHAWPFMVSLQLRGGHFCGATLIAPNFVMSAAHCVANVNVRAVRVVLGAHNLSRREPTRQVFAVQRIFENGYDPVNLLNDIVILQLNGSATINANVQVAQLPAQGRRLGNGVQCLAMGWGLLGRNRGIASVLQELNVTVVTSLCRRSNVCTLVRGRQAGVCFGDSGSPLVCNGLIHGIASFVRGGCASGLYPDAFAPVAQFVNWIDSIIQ
# assay-comment: Human Neutrophil Elastase Assay
# Assay type: biochemical
# conditions: human neutrophil elastase, substrate MeOSuc-Ala-Ala-Pro-Val-AMC 250 μM, pH 7.5; read-out: IC50
# key: entry, value: IC50
Reply with just the number (in nM).

compound="CS(=O)(=O)c1cc(C#N)ccc1[C@H]1NC(=O)N(c2cccc(C(F)(F)F)c2)C2=C1C(=O)CC2 [Example 10A]" test_value=2.6

Now take the following compound into account.
I'd like to know its IC50. The compound in question is CCS(=O)(=O)c1cc(C#N)ccc1[C@H]1NC(=O)N(c2cccc(C(F)(F)F)c2)C2=C1C(=O)CC2 [Example 14A]
1.2
